biological target: Recombinant human TRKC (Homo sapiens); test: In vitro activity test on TRKC kinase (HTRF KinEASE TK); details: 25.64 μM ATP, 40 min
Sequence (Q16288 32-839): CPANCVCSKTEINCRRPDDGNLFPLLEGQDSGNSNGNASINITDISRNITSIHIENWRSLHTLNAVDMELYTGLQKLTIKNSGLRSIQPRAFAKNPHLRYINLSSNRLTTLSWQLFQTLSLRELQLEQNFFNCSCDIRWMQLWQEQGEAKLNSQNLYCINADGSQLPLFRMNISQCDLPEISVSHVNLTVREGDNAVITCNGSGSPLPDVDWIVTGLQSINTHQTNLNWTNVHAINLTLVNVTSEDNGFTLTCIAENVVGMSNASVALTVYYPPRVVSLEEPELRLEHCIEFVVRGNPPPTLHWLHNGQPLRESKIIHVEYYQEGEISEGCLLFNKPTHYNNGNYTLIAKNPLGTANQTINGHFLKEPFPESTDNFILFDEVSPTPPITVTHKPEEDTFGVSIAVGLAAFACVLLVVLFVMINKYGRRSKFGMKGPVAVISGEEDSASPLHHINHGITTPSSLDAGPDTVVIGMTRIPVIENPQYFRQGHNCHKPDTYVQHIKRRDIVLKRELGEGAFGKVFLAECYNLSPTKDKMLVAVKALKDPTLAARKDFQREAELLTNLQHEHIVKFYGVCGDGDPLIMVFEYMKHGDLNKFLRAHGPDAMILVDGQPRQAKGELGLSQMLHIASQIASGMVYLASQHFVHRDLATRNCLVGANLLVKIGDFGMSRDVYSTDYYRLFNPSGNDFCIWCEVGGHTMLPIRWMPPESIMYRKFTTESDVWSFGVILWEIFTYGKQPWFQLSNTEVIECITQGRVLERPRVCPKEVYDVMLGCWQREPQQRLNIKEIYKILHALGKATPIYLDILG
pIC50: −log10 of the molar value.
Entries and their pIC50 values follow.

Consider Fc1ccc(F)c([C@H]2C[C@H](F)CN2c2ccc3ncnc(-c4cnn(CC5CNC5)c4)c3n2)c1 [Example 59] . Its measured pIC50 is > 9.00

Consider CC(C)(O)Cn1cc(-c2c(Cl)cnc3ccc(N4C[C@@H](F)C[C@@H]4c4cc(F)ccc4F)nc23)cn1 [Example 35] . Its measured pIC50 is > 9.00

More entries:
Consider Fc1ccc(F)c([C@H]2CCCN2c2ccc3ncc(Cl)c(-c4cnn(C5CCNCC5)c4)c3n2)c1 [Example 24] . Its measured pIC50 is > 8.00

Consider Fc1cnc(Cl)c([C@H]2CCCN2c2ccc3ncc(F)c(-c4cnn(C5CCNCC5)c4)c3n2)c1 [Example 90] . Its measured pIC50 is > 8.00

Consider CC1(O)CC(n2cc(-c3c(Cl)cnc4ccc(N5C[C@@H](F)C[C@@H]5c5cc(F)ccc5F)nc34)cn2)C1 (some centres unmarked) [Example 39] . Its measured pIC50 is > 9.00

Consider Fc1ccc(F)c([C@H]2C[C@H](F)CN2c2ccc3ncnc(-c4noc(C5CCNCC5)n4)c3n2)c1 [Example 81] . Its measured pIC50 is > 8.00

Consider Fc1ccc(F)c([C@H]2C[C@H](F)CN2c2ccc3nccc(-c4cnn(C5CCNCC5)c4)c3n2)c1 [Example 11] . Its measured pIC50 is > 9.00

Consider Fc1ccc(F)c([C@H]2C[C@H](F)CN2c2ccc3ncnc(-c4cnc(C5CCNCC5)nc4)c3n2)c1 [Example 91] . Its measured pIC50 is > 9.00
